Measured values drawn from ChEMBL document CHEMBL3286341 for this set.

# tgt: 17-beta-hydroxysteroid dehydrogenase type 2 (Homo sapiens)
# Sequence (P37059 whole entry): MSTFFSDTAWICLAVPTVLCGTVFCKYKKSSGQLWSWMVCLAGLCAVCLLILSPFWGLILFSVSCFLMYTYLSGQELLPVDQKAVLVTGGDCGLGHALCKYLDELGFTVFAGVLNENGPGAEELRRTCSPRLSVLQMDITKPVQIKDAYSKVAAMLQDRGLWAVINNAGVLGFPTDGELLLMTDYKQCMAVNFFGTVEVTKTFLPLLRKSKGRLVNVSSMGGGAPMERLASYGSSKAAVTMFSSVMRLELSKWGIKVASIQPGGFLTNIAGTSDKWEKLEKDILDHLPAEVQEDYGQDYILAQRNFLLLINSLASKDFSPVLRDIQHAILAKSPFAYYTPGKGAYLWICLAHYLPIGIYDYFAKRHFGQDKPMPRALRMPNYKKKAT
observable: pIC50
Hey, just a heads up that pIC50 is the negative log base 10 of the concentration in molar.

smilesRepr | tgt | observable | experimentalValue
CC(C)(C(=O)c1ccc(-c2cccc(O)c2)s1)c1cccc(O)c1 | 17-beta-hydroxysteroid dehydrogenase type 2 (Homo sapiens) | pIC50 | 6.45

Return pIC50 for the following molecule: CN(C(=O)c1cc(-c2cccc(O)c2)sc1-c1cccc(O)c1)c1cccc(O)c1
6.44

====

# tgt: 17-beta-hydroxysteroid dehydrogenase type 1 (Homo sapiens)
# Sequence (whole entry): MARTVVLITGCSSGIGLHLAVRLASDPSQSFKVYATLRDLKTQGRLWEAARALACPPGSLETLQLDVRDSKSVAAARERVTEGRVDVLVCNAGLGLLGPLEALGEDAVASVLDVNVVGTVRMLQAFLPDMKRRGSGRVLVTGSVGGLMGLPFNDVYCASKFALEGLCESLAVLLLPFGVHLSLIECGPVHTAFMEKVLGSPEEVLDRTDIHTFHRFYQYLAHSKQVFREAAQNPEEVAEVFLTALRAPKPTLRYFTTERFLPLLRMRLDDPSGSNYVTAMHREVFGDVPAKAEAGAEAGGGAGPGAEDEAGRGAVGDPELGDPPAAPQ
# methodNotes: Inhibition of human placental 17beta-HSD1 cytosolic fraction using tritiated estrone as substrate assessed as formation of estradiol at 1 uM by HPLC analysis relative to control
The source made the active and inactive calls. The rule behind the calls is not given here.
observable: inhibition

Recorded inhibition, per entry:
smilesRepr | inhibition
CC(C)(C(=O)c1ccc(-c2cccc(O)c2)s1)c1cccc(O)c1 | 54%
COc1cccc(-c2ccc(C(=O)N(C)Cc3cccc(O)c3)s2)c1F | inactive
O=C(Cc1cccc(O)c1)c1ccc(-c2cccc(O)c2)s1 | 43%
CN(C(=O)c1cc(-c2cccc(O)c2)sc1-c1cccc(O)c1)c1cccc(O)c1 | 29%

Return inhibition for the following compound: COc1cccc(CC(=O)c2ccc(-c3cccc(OC)c3)s2)c1
inactive

Return inhibition for the following compound: COc1cccc(CN(C)C(=O)c2ccc(-c3cccc(OC)c3)s2)c1
inactive

====

# tgt: Estradiol 17-beta-dehydrogenase 2 (Mus musculus)
# Sequence (whole entry): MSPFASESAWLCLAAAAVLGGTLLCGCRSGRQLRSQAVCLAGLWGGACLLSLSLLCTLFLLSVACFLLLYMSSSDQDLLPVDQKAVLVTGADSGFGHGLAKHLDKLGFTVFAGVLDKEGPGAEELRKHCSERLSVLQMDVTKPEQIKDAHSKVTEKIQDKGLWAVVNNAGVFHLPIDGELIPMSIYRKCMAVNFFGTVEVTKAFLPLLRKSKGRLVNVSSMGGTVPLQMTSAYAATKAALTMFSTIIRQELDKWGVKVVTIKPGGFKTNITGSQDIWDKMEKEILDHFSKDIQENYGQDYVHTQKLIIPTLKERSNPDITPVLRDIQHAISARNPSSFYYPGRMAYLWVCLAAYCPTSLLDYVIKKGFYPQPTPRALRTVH
# methodNotes: Inhibition of mouse liver 17beta-HSD2 microsomal fraction using tritiated estradiol as substrate assessed as formation of estrone at 1 uM by HPLC analysis relative to control
Activity calls are given as the source filed them. The rule behind the calls is not given here.
observable: inhibition

Recorded inhibition, per entry:
smilesRepr | tgt | experimentalValue
Cc1cc(-c2cccc(O)c2)sc1-c1cccc(O)c1 | Estradiol 17-beta-dehydrogenase 2 (Mus musculus) | inactive
Oc1cccc(-c2cc(-c3cccc(O)c3)c(-c3cccc(O)c3)s2)c1 | Estradiol 17-beta-dehydrogenase 2 (Mus musculus) | inactive
CN(Cc1cccc(O)c1)C(=O)c1ccc(-c2cccc(O)c2)s1 | Estradiol 17-beta-dehydrogenase 2 (Mus musculus) | 16%
CC(C)(C(=O)c1ccc(-c2cccc(O)c2)s1)c1cccc(O)c1 | Estradiol 17-beta-dehydrogenase 2 (Mus musculus) | 42%

Return inhibition for the following compound: COc1cccc(CN(C)C(=O)c2ccc(-c3cccc(OC)c3)s2)c1
26%

Return inhibition for the following compound: COc1cccc(CC(=O)c2ccc(-c3cccc(OC)c3)s2)c1
12%

Return inhibition for the following compound: O=C(Cc1cccc(O)c1)c1ccc(-c2cccc(O)c2)s1
inactive

Return inhibition for the following compound: CN(C(=O)c1cc(-c2cccc(O)c2)sc1-c1cccc(O)c1)c1cccc(O)c1
42%
